# Tested on: HUVEC
# procedureSummary: Inhibition of VEGF-stimulated HUVEC cell proliferation treated before 2 hrs of VEGF challenge assessed after 72 hrs
# Type: functional, cell-based
# conditionDescription: Homo sapiens
measurementKind: IC50 (nM)
Write down the numeric answer in nM and omit the unit.

Consider the following illustrative entries.
* COc1cc2nccc(Oc3ccc4c(NC(=O)c5ccc(C(F)(F)F)cc5)nn(C)c4c3)c2cc1OC | 79
* COc1ccc(C(=O)Nc2nn(C)c3cc(Oc4ccnc5cc(OC)c(OC)cc45)ccc23)cc1 | 32

Exercise: Please look up its IC50: `COc1ccc(NC(=O)Nc2nn(C)c3cc(Oc4ccnc5cc(OC)c(OC)cc45)ccc23)cc1`
Key: 7
